target: human recombinant HDAC1 (Homo sapiens, UniProt Q13547); construct: purchased Enzo Life Science, Inc. BML-SE456; experiment: HDAC1 enzyme activity inhibition (HDAC Fluorimetric Drug Discovery Kit); assay type: biochemical; settings: human recombinant HDAC1, Fluor de Lys substrate, 30° C. 60 minutes; read-out: HDAC1
Sequence (Q13547 whole entry): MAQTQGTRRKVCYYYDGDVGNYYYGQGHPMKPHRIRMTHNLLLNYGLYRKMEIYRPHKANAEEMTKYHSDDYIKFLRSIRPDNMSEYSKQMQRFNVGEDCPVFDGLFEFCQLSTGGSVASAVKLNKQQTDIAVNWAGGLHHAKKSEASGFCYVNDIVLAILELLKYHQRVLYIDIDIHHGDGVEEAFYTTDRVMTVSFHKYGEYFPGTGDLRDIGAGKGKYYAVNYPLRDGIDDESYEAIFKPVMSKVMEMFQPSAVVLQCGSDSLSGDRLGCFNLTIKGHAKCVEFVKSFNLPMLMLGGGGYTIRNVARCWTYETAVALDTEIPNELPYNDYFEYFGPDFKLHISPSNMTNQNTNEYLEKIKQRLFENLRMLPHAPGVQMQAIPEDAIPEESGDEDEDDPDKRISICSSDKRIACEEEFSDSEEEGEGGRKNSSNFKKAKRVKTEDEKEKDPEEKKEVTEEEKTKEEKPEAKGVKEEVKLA

| Compound | IC50 |
| --- | --- |
| Fc1cc(-c2nnc(C(F)F)o2)ccc1Cn1cc(-c2ccc(CN3CC[C@H](F)C3)s2)nn1 [Compound 17916] | > 50 µM |
| CN1CCC(c2cccc(-c3cn(Cc4ncc(-c5nnc(C(F)F)o5)cc4F)nn3)c2)CC1 [Compound 18869] | > 50 µM |
| CN(C)Cc1ccc(-c2cn(Cc3ccc(-c4nnc(C(F)F)o4)cc3F)nn2)cc1 [Compound 4522] | > 50 µM |
